system: Saccharomyces cerevisiae; assay: protein stability index of tFT-peptide fusion (C-terminal peptide) (PSI (0-1 scale)); higher = more stable (slower turnover); details: genetic background: wild type; temperature: 30 C;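 also: PSI is a weighted mean of sequencing reads over stability bins, variants kept only with over 10 reads, mCherry proximal and sfGFP distal, peptide attached via GGGS linker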
If the reported protein stability index equals or exceeds 0.7, assign t. If not, assign f.

Here's what some known entries look like.
- LPLRLVPLFSPP: t
- PAVSLPPPAPAS: t
- RCVGWRRTPESS: t
- PSRTSPLSHIPF: f
- SGHGFFMCLFRC: f
- LCAFPFSHPSSI: t
- VCVSCTPALLFL: f
- LCLDHAKQNPGK: f
- FPWISPCCFTFP: f
- EERGGDNVTVCG: t

Incoming: Answer whether protein stability index of VFFLSFIFRFFL is greater than or equal to 0.7.
Outgoing: f

Incoming: Answer whether protein stability index of WSLRFRRMMLRC is greater than or equal to 0.7.
Outgoing: f

Incoming: Answer whether protein stability index of VVVARGGEEGWW is greater than or equal to 0.7.
Outgoing: f

Incoming: Answer whether protein stability index of PPPPPPCSPATS is greater than or equal to 0.7.
Outgoing: t

Incoming: Answer whether protein stability index of CGLASHLCSGRG is greater than or equal to 0.7.
Outgoing: f

Incoming: Answer whether protein stability index of YILSSFPSCLVL is greater than or equal to 0.7.
Outgoing: f

Incoming: Answer whether protein stability index of SGEVSYVYVGNK is greater than or equal to 0.7.
Outgoing: f

Incoming: Answer whether protein stability index of AWRWGVGVGSGS is greater than or equal to 0.7.
Outgoing: t

Incoming: Answer whether protein stability index of LHPPPPPPALTP is greater than or equal to 0.7.
Outgoing: t

Incoming: Answer whether protein stability index of SPCPLTVAPIIP is greater than or equal to 0.7.
Outgoing: f

Incoming: Answer whether protein stability index of SFFFLILFLFRD is greater than or equal to 0.7.
Outgoing: f

Incoming: Answer whether protein stability index of SVPNYDAVGAGD is greater than or equal to 0.7.
Outgoing: f

Incoming: Answer whether protein stability index of ETVHVISLIAIG is greater than or equal to 0.7.
Outgoing: f

Incoming: Answer whether protein stability index of HMVSWTVVRSLM is greater than or equal to 0.7.
Outgoing: f

Incoming: Answer whether protein stability index of PPPPPPLPSSFP is greater than or equal to 0.7.
Outgoing: f

Incoming: Answer whether protein stability index of RCVGVLYVAGLE is greater than or equal to 0.7.
Outgoing: f

---

// reported protein stability index for each item listed
tested on: Saccharomyces cerevisiae; assay: protein stability index of tFT-peptide fusion (C-terminal peptide) (PSI (0-1 scale)); higher = more stable (slower turnover); settings: genetic background: wild type; temperature: 30 C

As a guide, the following entries are already answered.
* YLMVSKMSLRIG | 0.401
* ELSLSCPPLETP | 0.768
* LSFPAPLPLFNT | 0.767

Incoming: Dear colleague, please send me the reported protein stability index for DSIVHSFYIPLL when you can.
Outgoing: 0.666

Incoming: Dear colleague, please send me the reported protein stability index for IGYSSIYKTTGT when you can.
Outgoing: 0.668

Incoming: Dear colleague, please send me the reported protein stability index for CSRPSLPIYYCS when you can.
Outgoing: 0.581

Incoming: Dear colleague, please send me the reported protein stability index for DVAYSSSNAVHR when you can.
Outgoing: 0.669

Incoming: Dear colleague, please send me the reported protein stability index for SLGAPPAVVSSY when you can.
Outgoing: 0.682

Incoming: Dear colleague, please send me the reported protein stability index for LRTHPPGPLPLA when you can.
Outgoing: 0.654

Incoming: Dear colleague, please send me the reported protein stability index for VCICDRLASRDV when you can.
Outgoing: 0.733

Incoming: Dear colleague, please send me the reported protein stability index for LPPLPPSPPSPR when you can.
Outgoing: 0.697

Incoming: Dear colleague, please send me the reported protein stability index for FGNVLISMRNRL when you can.
Outgoing: 0.834

Incoming: Dear colleague, please send me the reported protein stability index for PASSAPDSSTAH when you can.
Outgoing: 0.741

Incoming: Dear colleague, please send me the reported protein stability index for CPLPPSTPPLRL when you can.
Outgoing: 0.709

Incoming: Dear colleague, please send me the reported protein stability index for PVLRPPTPPRFR when you can.
Outgoing: 0.661

Incoming: Dear colleague, please send me the reported protein stability index for WGWGVASRCCEG when you can.
Outgoing: 0.72

Incoming: Dear colleague, please send me the reported protein stability index for PDGGPGLLRFVL when you can.
Outgoing: 0.64

Incoming: Dear colleague, please send me the reported protein stability index for SGGRGAILVSVV when you can.
Outgoing: 0.647

Incoming: Dear colleague, please send me the reported protein stability index for IVFTPPSVTFHA when you can.
Outgoing: 0.825

Incoming: Dear colleague, please send me the reported protein stability index for CLRPGAPESSIP when you can.
Outgoing: 0.673

Incoming: Dear colleague, please send me the reported protein stability index for GCVLVFFLRLDL when you can.
Outgoing: 0.49

Incoming: Dear colleague, please send me the reported protein stability index for VLMGGCGSWMAV when you can.
Outgoing: 0.677

Incoming: Dear colleague, please send me the reported protein stability index for PPPRPPRPPCPF when you can.
Outgoing: 0.732

Incoming: Dear colleague, please send me the reported protein stability index for VIEWFVRGRVGG when you can.
Outgoing: 0.703

Incoming: Dear colleague, please send me the reported protein stability index for VCARAGRALEDS when you can.
Outgoing: 0.674

Incoming: Dear colleague, please send me the reported protein stability index for DKKPMKKILLCI when you can.
Outgoing: 0.151

---

test system: Saccharomyces cerevisiae; assay: protein stability index of tFT-peptide fusion (C-terminal peptide) (PSI (0-1 scale)); higher = more stable (slower turnover); settings: genetic background: wild type; temperature: 30 C
RECORDED ENDPOINT: protein stability index
Output spec: single numeric token, no unit.

As a guide, the following entries are already answered.
* DRYSVGCGVSEG | 0.704
* PRPCASALPPHP | 0.712

Incoming: For Saccharomyces cerevisiae, give the measured protein stability index of the entry PRSLHVLSRFLP
Outgoing: 0.691

Incoming: For Saccharomyces cerevisiae, give the measured protein stability index of the entry PPPPPPSLPYLL
Outgoing: 0.771

Incoming: For Saccharomyces cerevisiae, give the measured protein stability index of the entry VMGFCDWLGVFL
Outgoing: 0.728

Incoming: For Saccharomyces cerevisiae, give the measured protein stability index of the entry PSARASSRTAPS
Outgoing: 0.661

Incoming: For Saccharomyces cerevisiae, give the measured protein stability index of the entry EPGLIPVAGTFF
Outgoing: 0.76

Incoming: For Saccharomyces cerevisiae, give the measured protein stability index of the entry LRTLALSYTSLT
Outgoing: 0.664

Incoming: For Saccharomyces cerevisiae, give the measured protein stability index of the entry KVGLGGRLQSYP
Outgoing: 0.634

Incoming: For Saccharomyces cerevisiae, give the measured protein stability index of the entry SLPSWPPAPLPG
Outgoing: 0.703

---

// reported protein stability index for each item listed
test system: Saccharomyces cerevisiae; assay: protein stability index of tFT-peptide fusion (C-terminal peptide) (PSI (0-1 scale)); higher = more stable (slower turnover); settings: genetic background: wild type; temperature: 30 C
Output spec: single numeric token, no unit.

As a guide, the following entries are already answered.
* WLKLWSYVTHLG | 0.346
* QWTVRNQGVMQR | 0.681
* RMCEILGIRHLI | 0.158
* TRSLLFANRCIV | 0.304
* GGVSPRSSMDLL | 0.645

Incoming: Dear colleague, please send me the reported protein stability index for GLAVLSWLYIEL when you can.
Outgoing: 0.461

Incoming: Dear colleague, please send me the reported protein stability index for RGLWAAIPRKCT when you can.
Outgoing: 0.223

Incoming: Dear colleague, please send me the reported protein stability index for FVVFYFFLLFGV when you can.
Outgoing: 0.264

Incoming: Dear colleague, please send me the reported protein stability index for SPGFVLLAVLVI when you can.
Outgoing: 0.214

Incoming: Dear colleague, please send me the reported protein stability index for LFFLPPCYWFLL when you can.
Outgoing: 0.392

Incoming: Dear colleague, please send me the reported protein stability index for LMIVSVRLLFFL when you can.
Outgoing: 0.172

---

// reported protein stability index for each item listed
system: Saccharomyces cerevisiae; test: protein stability index of tFT-peptide fusion (C-terminal peptide) (PSI (0-1 scale)); higher = more stable (slower turnover); settings: genetic background: wild type; temperature: 30 C

As a guide, the following entries are already answered.
* VELEPPVCVFLL | 0.639
* IRKNLIPLTIFT | 0.538
* PPPAPPPLAPPL | 0.713
* LPPYPPPVPILI | 0.493
* LSPPQRISLIPY | 0.659

Incoming: For Saccharomyces cerevisiae, give the measured protein stability index of the entry WGSSGWVGEGGG
Outgoing: 0.657

Incoming: For Saccharomyces cerevisiae, give the measured protein stability index of the entry MATLRVPTLSPD
Outgoing: 0.574
